assay: Kinetic solubility of the compound in pH 7.4 phosphate buffer; assay type: physicochemical; conditions: read-out: Kinetic_solubility
quantity: solubility kinetic

>>> print(df.to_string())
                                test_smiles            quantity    reported
0  COc1cccc(F)c1-c1nc(CN2CCC(C(=O)NCCCN3C[C@H](C)C[C@H](C)C3)CC2)c(C)o1  solubility kinetic  > 74 µg/mL
1  Cc1ccc2ccccc2c1-c1nc(CN2CCC(C(=O)NCCCN3C[C@H](C)C[C@H](C)C3)CC2)c(C)o1  solubility kinetic  > 76 µg/mL

Next compound, please.
Can you look up the measured solubility kinetic of CCN(CC)CCCCNC(=O)C1CCN(Cc2nc(-c3ccc(OC)c(OC)c3)oc2C)CC1 for me?
> 72 µg/mL

* * *

assay: Permeability of the compound by PAMPA; type: physicochemical; details: read-out: permeability
quantity: Papp

Example results:
                                test_smiles           reported
0  Cc1oc(-c2ccc(Cl)cc2)nc1CN1CCC(C(=O)NCCCN2C[C@H](C)C[C@H](C)C2)CC1   > 635 ×10⁻⁶ cm/s
1  Cc1ccccc1-c1nc(CN2CCC(C(=O)NCCCN3CC(C)(C)CC(C)(C)C3)CC2)c(C)o1  > 1400 ×10⁻⁶ cm/s

Next compound, please.
Can you look up the measured Papp of Cc1oc(-c2c(Br)cccc2Br)nc1CN1CCC(C(=O)NCCCN2C[C@H](C)C[C@H](C)C2)CC1 for me?
< 1 ×10⁻⁶ cm/s

* * *

assay: Permeability of the compound by PAMPA; format: physicochemical; details: read-out: permeability
Threshold 300 ×10⁻⁶ cm/s: Papp strictly smaller gives 1.0, otherwise 0.0.

Would you please look over these solved cases?
                                test_smiles  classification
0  Cc1cccc(Cl)c1-c1nc(CN2CCC(C(=O)NCCCN3C[C@H](C)C[C@H](C)C3)CC2)c(C)o1             1.0
1  Cc1ccccc1-c1nc(CN2CCC(C(=O)NCCCN3CCCCC3)CC2)c(C)o1             1.0
2  COc1cccc(Br)c1-c1nc(CN2CCC(C(=O)NCCCN3C[C@H](C)C[C@H](C)C3)CC2)c(C)o1             1.0
3  Cc1ccccc1-c1nc(CN2CCC(C(=O)NCCCN3CCC(C)(C)CC3)CC2)c(C)o1             1.0
4  Cc1cc(-c2nc(CN3CCC(C(=O)NCCCN4CCC(C(C)C)CC4)CC3)co2)ccc1F             1.0
5  CCN(CC)CCCCNC(=O)C1CCN(Cc2nc(-c3ccc(OC)c(OC)c3)oc2C)CC1             1.0
6  Cc1ccccc1-c1nc(CN2CCC(C(=O)NCCCCN3C[C@H](C)C[C@H](C)C3)CC2)c(C)o1             1.0
7  Cc1ccccc1-c1nc(CN2CCC(C(=O)NCCCN3CCC(C(C)C)CC3)CC2)c(C)o1             0.0

Record Cc1ccc2ccccc2c1-c1nc(CN2CCC(C(=O)NCCCN3C[C@H](C)C[C@H](C)C3)CC2)c(C)o1 : is its Papp strictly below 300 ×10⁻⁶ cm/s?
0.0

Record Cc1ccccc1-c1nc(CN2CCC(C(=O)NCCCN3CCOCC3)CC2)c(C)o1 : is its Papp strictly below 300 ×10⁻⁶ cm/s?
0.0

Record COc1cccc(C)c1-c1nc(CN2CCC(C(=O)NCCCN3C[C@H](C)C[C@H](C)C3)CC2)c(C)o1 : is its Papp strictly below 300 ×10⁻⁶ cm/s?
1.0

Record Cc1ccccc1-c1nc(CN2CCC(C(=O)NCCCN3CC4CCCC(C4)C3)CC2)c(C)o1 : is its Papp strictly below 300 ×10⁻⁶ cm/s?
0.0

Record Cc1oc(-c2c(C)c(C)c(C)c(C)c2C)nc1CN1CCC(C(=O)NCCCN2C[C@H](C)C[C@H](C)C2)CC1 : is its Papp strictly below 300 ×10⁻⁶ cm/s?
0.0

Record Cc1cccc(C)c1-c1nc(CN2CCC(C(=O)NCCCN3C[C@H](C)C[C@H](C)C3)CC2)c(C)o1 : is its Papp strictly below 300 ×10⁻⁶ cm/s?
1.0

# credit: ChEMBL document CHEMBL4038306
